details: in methanol, 325.15 K
result.type: solubility (mole fraction)
Kindly provide the number alone.

[Q] Look up solubility (mole fraction) for this compound: Fc1c(I)c(F)c(I)c(F)c1I
[A] 0.00015
